These entries and their values trace back to patent US6787522B2.

Reported MIC values are given for each entry in this list.
- Test system: Staphylococcus capitis (American Type Culture Collection number 35661)
- Measurement notes: MIC, two fold serial dilution in 2xYT broth
- Format: cell-based
- Run conditions: 37° C., 18 hours
The reply should contain only the number, in µM.

O=C(N[C@H](CO)[C@H](O)c1ccc([N+](=O)[O-])cc1)C(Cl)Cl [chloramphenicol] : 6.25

Asked: Give its MIC value. Item: CCCCC(CN(O)C=O)C(=O)N[C@H](C(=O)NC)C(C)(C)C (single isomer, unassigned) [Compound 1]
Given back: 100
